# SYSTEM_TESTED: T1, PUF4 RNA-binding domain (Saccharomyces cerevisiae, UniProt P25339 537-888)
# T1 sequence: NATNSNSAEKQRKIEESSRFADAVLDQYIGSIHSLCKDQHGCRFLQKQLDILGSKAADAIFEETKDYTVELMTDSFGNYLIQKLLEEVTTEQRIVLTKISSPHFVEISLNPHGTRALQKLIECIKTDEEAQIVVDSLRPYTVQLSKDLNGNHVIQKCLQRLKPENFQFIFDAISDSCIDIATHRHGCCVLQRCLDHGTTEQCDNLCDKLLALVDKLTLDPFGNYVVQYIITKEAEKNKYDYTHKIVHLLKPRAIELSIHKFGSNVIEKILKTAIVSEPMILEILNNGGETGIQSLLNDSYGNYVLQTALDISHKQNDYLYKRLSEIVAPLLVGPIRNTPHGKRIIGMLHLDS
# ASSAY_NOTES: Mg; RNA-MaP; 20 mM Na-HEPES pH 7.4, 30 mM KOAc, 0.75 mM MgCl2, 0.1% Tween-20, 5% glycerol, 0.1 mg/mL BSA, 2 mM DTT; 25 C; 0.0125-409.6 nM protein
# CONDITION_SET: tags: N-His6-TEV cleaved; C-SNAP kept, Cy3B-labelled; label: tethered on chip by stalled RNA polymerase
METRIC_NAME: log10 of Kd (log10 of the value in µM)

BINDER	log10 of Kd
UCUCUUCCUAUAUAUUAUAUCUCUU (ssRNA) [Id_ii_S1_P4E.3_K4.2_C4.2_[T-1C]_H4.2_A4.1_F4.1_T4.2_[G10T]_[T11A]]	-1.84
Ic_S2_P5E.1_K5.1_C5.1_H5.1_A5.1_[T5C]_[T6C]_[A7G]_F5.1_[T8A]_[T9C]_[A10C]_T5.1 (ssRNA) RNA: UUUGAUUAAUAUGAUAUCGUUCUUUCUUGUACCGACCUUCUUUCUCGAUAUCAUAUUAAUCUUU	0.06
UCUCUUCUUGUCUUAUAUAUAUCUCUU (ssRNA) [Ie_S1_P3E.2_K3.1_C3.2_H3.1_[+3CTT]_A3.1_F3.1_T3.2]	-1.02
UCUCUUUGUACCACUCUCUU (ssRNA) [Ic_S1_P3E.1_K3.1_C3.1_H3.1_A3.1_[T5C]_[A6C]_F3.1_[T7A]_[A8C]_T3.1]	-0.72
Ic_S4_P5E.1_K5.1_C5.1_H5.1_A5.1_[T5C]_[T6A]_[A7C]_F5.1_[T8A]_[T9A]_T5.1 (ssRNA) RNA: UUUGACAACUGAUCGUUCUUUCUUGUACACAAAUUCUUUCUCGAUCAGUUGUCUUU	-1.81
UCUCUUCCUAUAUAUACCUCUCUU (ssRNA) [Id_ii_S1_P3E.3_K3.2_C3.2_[T-1C]_H3.2_A3.1_F3.1_T3.2_[T9C]_[A10C]]	-0.01
